tested on: K4 kissing-loop RNA reporter; assay: apparent KD of K4 kissing-loop reporter; higher = weaker reporter binding; conditions: Eterna round: R107; input ligand: theophylline 20 uM;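 also: bound reporter read as fluorescence of individual clusters on recovered sequencing chips by microscopy, with normalized cluster intensities fitted with a binding model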
This listing pairs sequences with measured apparent KD of K4 kissing-loop reporter.

sequence code	apparent KD of K4 kissing-loop reporter / nM
AGUGGUGUUGUGUUAUGUUUGGGAAGUGAUCGAGGACCGGUACGGCCGCCACUCGAGUGAUGAGUGAGUGAUGUUUGUUUAGGGA [whbob_SS_Tryp_A_m10]	646
UGUCAUUGGUCGGCCGCCACUAGAAGGUCAAAGACCAUAGAGUGAUGUUCUAAGACGAAAGUCACUAGGACCGGGACCGAUGACU [TrypBS 1 #SwitchBubble #K4Middle]	946
GUCUCGAGUGAUGUUCGGGUCGUUUGGGAAGGAGCGCCCGGAAGGGCAGGUAGGUCGCCCGGACCGCGCGGGCAACCGCGCGGCC [#2 Same State - Arginine A Attempt #12 (HarryS)]	212
AAAAUAAAUCAGUGAUGUUGGUAUCUGGAUACCAGCGAUAAUCAUCGCCCUUGGCAGCCAUGGACGUACAAAAUAAGUACGUCCU [MatMod 17 - Jieux - Same State - Theophylline A]	228
CCGGCCCGGCCGGAUACCAGUGCGCCGCAGGGAACGGCGGGCCCAGAGUGAUGUUCGGGACACCCUUGGCAGCCGCCUGGGUCGC [#2 Same State - Theophylline B Attempt #27 (HarryS)]	225
UGUACCGAGUCAGGAUAUGGCGUCGAAAGACGAAUCCUAGUGAUGUUAGCGAUCUGCGAAAGCAGUCCAGAAGGGACUUGGUACU [FmnBS 26 C50]	371
UCCUAGGCUCGAAAGAGCCUAGGAUUUACUCAGGAUAUCCGGAAACGGAGAAGGGAGUGACUAGUGAUGUUAGGGACUCCCUAUU	85.2
GACCGGCCGACGAGUGAUGUUCGAUGGGAAGGAGCGCGAAGAAAUGCAGGUAGGUCGCCCUAAGUAAUUGAAACGGCCGGAUUAU [2.)]	212
UUAGUCAGAUUAUUAUUAGCCUGCGAGUCUAAGGAUAUCCGAAUUCGGAGAAGGUAGUGAUGUUACUUUGGCAGGCACUGACAUU [AK9 Exc FMN A]	414
CCUUCUCUUGAUAGUGAUGUUAUCAAGGGCAAGGAUAUCAUCUCAAUGAGAAGGUGUCCUUGAUAACAUGGAGGUCUGAAACAGA [Omei KL FMN A Exc C v4]	159
CGCAAGCAGCCAGUGAUGUUGGCCGCCUUGCGAGGACCGGUACGGCCGCCACUCGAAGGCGGCUACUGAUAAUCCGUCUAACGGA [KL-XTryp-A15]	92.4
GCAUCCUAGUCGGCCGCCACUAACAUGAGUGAUGUUCAUGUACGUCAGUGAUGUUGACGUAGUUAUAGGACCGGGACUAGGAUGC [KL-SSTryp-B7 Brourdwalk3]	118
GCGUAGGAAGAAGGAUAUCACAGGAUGCCACGUUAGUGAUGUUAAUUUGGUUCAGCGCGAUUCUGAUGAGAAGGUCUUUUAUGAU [theeternabot_sameState_KL_FMN_B_47]	205
UCCAGCAGUACUGAUACCAGACUGCAUGUAGUGAUGUUGCAUAAGGGCAUAGAUGUCUCAGUCCCUUGGCAGCGGUACUGUUGCA [#09 K4 Theophylline B Same State]	251
GUGCAGUGAUGUUGCACGAGGAAAGACGAUACCAGCCGUAAAUAAGGCCCUUGGCAGCGUGGGCUAGCAUAAAGCAUGCUAGUCU [Edbemavela]	111
UGACUGGACUGAAGGAGCGCGCGAGACAAAGUCUCGAACUGGUAGUGAUGUUAUCAAAUAACGCAGGUAGGUCGCAGUCUAGUCU [ArgBS 12 #SwitchBubble #StaticStem]	193
CGACGGAGUGAUGUUUCGUGGUAUGCUGAUACCAGAUGAAACAGCGUCCCUUGGCAGCAGCAUACGCCAAGGAUAAUAUCCUAGU [Theo B SS t6]	531
GGUUCCUCAGUGAUGUUGAGGUGACCUCGGCAGGAUAUAGGCAUUACUAGAAGGGCCAAAAGAACCCUGUGUAGCGACACAGGGA [Beerma]	279
ACGGAUACGCGAGAUACCAGAGGCAUUCGCCAGCGACCAUAAUGUCCCGAGAGUGAUGUUCUCCCUUGGCAGCUCAUGGUUAAUU [theeternabot_exclusion_KL_Theo_B_2]	570
UAGUCCUAGUGAUGGUUAUCACGUGGUGGGCGAGGACCGGUACGGCCGCCACUCGACUAUGCAGUGAUGUUGCAAUCCGGACAAU [Exclusion - Tryptophan A (Freestyle 16)]	353
UUCGAUCAGUGAUGUUGAUCAAUAGUCGAAGGAGCGCUAUAGAUAGCAGGUAGGUCGCGACUACAAGGUGUUAAGACACCUCGAA [Arg A SS t9]	443
CGAACCUCCAAAGGAUAUCUCGUUUAGUGAUGUUUUGCGUAGUAUCAGGAUAGAAUAUUGAUUCAGAGAGAAGGUUGACGUUGGU [theeternabot_exclusion_KL_FMN_B_14]	511

----------
system: MS2 coat protein; experiment: apparent KD of MS2 coat protein, switch ON state; designed switch direction (-1 OFF switch, 1 ON switch): 1; higher = weaker reporter binding; settings: FMN input: 0 or 200 uM; Eterna round: R93 (includes R88 designs)
Threshold check on apparent KD of MS2 coat protein: at or above 20 nM gives Satisfied, strictly below gives Not satisfied.

sequence code	class name
UGUCUACCUGAUGAGGAUAUCCCACAGGCGACAUGAGGAUCACCCAUGUAAAGUAAGCGUAGGCGGGAGAAGGCAUGGCGGAGAC [Larearre]	Not satisfied
AGAAAACAUGAGGAUCACCCAUGUAGAAAUAUGGGAGGAUAUACAAAGACGAAAGUCAGAGUAGAAGGCCUAAAAA [salish99-SS1-085]	Not satisfied
AAAUAAAUGACUGAGGAUAUAUCGAUGAGUACAUGAGGAUCACCCAUGUGAUAAUAAAAAGGGUGGUAGAAGGUAGUCAACAAAC [Mod 14 of Pariah 4 by Hyphema in Round 1]	Satisfied
AGAAAUAAAAGAGAGGAUAUCCAAAAGAAAACAUGAGGAUCACCCAUGUAAAAGAAAAUAAAAUGGGAGAAGGCUCGAAAUAAGA [Topaz 21]	Not satisfied
AAUAUAUUAUUUAAGGAUAUCAUAGGAAAAACAUGAGGAUCACCCAUGUGGGAAACCUGGUCGGGUGAGAAGGUGGAUAAUAUAU [Samwise Clockwise 34 - Jieux - Same State 2]	Satisfied
CGGAGACAUGAGGAUCACCCAUGUGAGAAGAGGCGAGGAUAUUGAAAGAAAGAAGAGAAAUGAGAAGGCGCGAGCC [salish99-SS1-083]	Satisfied

----------
tested on: MS2 coat protein; assay: apparent KD of MS2 coat protein; designed switch direction (-1 OFF switch, 1 ON switch): -1; higher = weaker reporter binding; conditions: Eterna round: R95; input ligand: FMN 200 uM

sequence code	apparent KD of MS2 coat protein [nM]
GAAGAAGAGAGAAAAGAAAACAUGAGGAUCACCCAUGUGAGAAGAUGAGGGUGAUACAGGCUAUAUGCUCGUCUUAU (puzzle: Sensor v3, turn-off variant 1)	247
GAAAAGGUAGGAUAUACGAAAAAAAAGGGUAGGAAAAAAACACAUGAGGAUCACCCAUGUAGAAGGACCAAAAG [salish99_ex2_r3_024] (puzzle: Exclusion 2)	61.7
AUAACAAGCUUUUUUUUCGUAGUACAUGACGCUCGAGUCACAUGAGGAUCACCCAUGUCUUCCUGUUUGAUUGUUGA [JR_SV3TOV2_Sub058] (puzzle: Sensor v3, turn-off variant 2)	45.8
AGUAGUAGUAUCCGAUCCUACAUGAGGAUCACCCAUGUAGCUAGACGUGCACGCGAUGCUCGUCGGACUACCAGAUG [salish99_TOv1_r3_043] (puzzle: Sensor v3, turn-off variant 1)	48
AGUUGGCGAGGAUAUACAUGAGGAUCACCCAUGUGAGAGAAUAAAGUGAGAAAGAAAAGUAGAAGGCGCUGACG [Mat - Exclusion 3 - Mod of Salish D50] (puzzle: Exclusion 3)	82.8
AGUACUAUGCGUGCUGACAUGCGUAGUGCAGCAGGUGUUACAUGAGGAUCACCCAUGUCCUCAUUUGCUCGUCUUAA [Mat - Sensor v3 - Turn-off var 2 - D16] (puzzle: Sensor v3, turn-off variant 2)	88
AAAAGAAGUGUUAGGAUAUGUGGAAGUAGAAAGACACAGAAGGGACAUGAGGAUCACCCAUGUGGCCAAAGAAC [Vecedies] (puzzle: Brourd's mod of Exclusion 4)	17.3
AUGAGACAUGAGGAUCACCCAUGUGAGGAUAUGUAUGGAUGGUGGAAAGAAUGAGAGAACAGAAGGCACGUAGA [JR_Exclu1_Sub062] (puzzle: Exclusion 1)	122
AAACCGCAUGUCAGGAUAUCCAGUCCGACUAGCUAGGAGAAGGGACAUGAGGAUCACCCAUGUUUCAUGGCUCG [Anveonat] (puzzle: Brourd's mod of Exclusion 4)	37.6
AGACAGUCAGGAUAUACAUGAGGAUCACCCAUGUUGAGAAGAGAAAGGGCAGGAAGAGGUAGAAGGGACAAGAA [JR_Exclu3_Sub034] (puzzle: Exclusion 3)	21.3

Where these numbers come from: the supplement of paper PMC9170038
